molecular target: Protein arginine deiminase 4 (PAD4) (Homo sapiens, UniProt Q9UM07); assay: PAD4 ammonia release assay; type: biochemical; conditions: PAD4 ammonia release assay, BAEE substrate, 60 min at RT; read-out: Average IC50 Abs
Sequence (Q9UM07 whole entry): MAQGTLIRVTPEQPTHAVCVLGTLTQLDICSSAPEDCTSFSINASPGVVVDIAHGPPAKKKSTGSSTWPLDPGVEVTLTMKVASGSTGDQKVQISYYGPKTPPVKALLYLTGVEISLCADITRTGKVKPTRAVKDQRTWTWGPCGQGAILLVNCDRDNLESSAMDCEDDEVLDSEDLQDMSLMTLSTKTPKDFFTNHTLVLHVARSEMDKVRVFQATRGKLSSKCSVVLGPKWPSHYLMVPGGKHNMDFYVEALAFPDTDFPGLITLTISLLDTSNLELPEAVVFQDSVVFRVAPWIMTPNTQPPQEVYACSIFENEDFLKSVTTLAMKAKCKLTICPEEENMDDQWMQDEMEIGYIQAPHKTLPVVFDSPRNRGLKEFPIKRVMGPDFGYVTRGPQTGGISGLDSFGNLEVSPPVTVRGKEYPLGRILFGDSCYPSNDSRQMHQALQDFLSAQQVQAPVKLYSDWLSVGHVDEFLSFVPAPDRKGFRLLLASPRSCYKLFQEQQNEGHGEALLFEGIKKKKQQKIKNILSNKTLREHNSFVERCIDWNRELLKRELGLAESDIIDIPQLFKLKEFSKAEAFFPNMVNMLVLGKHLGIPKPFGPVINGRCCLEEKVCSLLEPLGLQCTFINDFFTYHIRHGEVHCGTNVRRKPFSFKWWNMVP
pIC50: −log10 of the molar value.
valueKind: pIC50

Examples from the recorded data:
# compound, valueKind, measurement
rows = [
    ("COc1cc(C(=O)N2C[C@H](N)C3(CC3)C2)cc2nc(-c3cc4cccc5c4n3CCN5CCCO)n(CC3CC3)c12", "pIC50", "< 5.30"),
    ("COc1cc(C(=O)N2C[C@H](N)C[C@@H](F)C2)cc2nc(-c3cc4cccc5c4n3CCN5CCCO)n(CC3CC(F)(F)C3)c12", "pIC50", "≥ 7.00"),
    ("CC(C)[C@@H]1CNc2cccc3cc(-c4nc5cc(C(=O)N6C[C@H]7CC[C@@H]6[C@@H]7N)cc(F)c5n4C)n1c23", "pIC50", "5.30 to 6.30"),
    ("COc1cc(C(=O)N2CCC[C@@H](N)C2)cc2nc(-c3cc4cccc5c4n3CC(=O)N5)n(C)c12", "pIC50", "< 5.30"),
    ("COc1cc(C(=O)N2CCC[C@@H](N)C2)cc2nc(-c3cc4cccc5c4n3CCN5C)n(C)c12", "pIC50", "< 5.30"),
]

## Task May I ask what pIC50 has been recorded for "COc1cc(C(=O)N2C[C@H](N)C[C@@H](F)C2)cc2nc(-c3cc4cccc5c4n3CCN5CCCO)n(CC3CCC3)c12" ?
## Result 6.30 to 7.00

## Task May I ask what pIC50 has been recorded for "Cn1c(-c2cc3cc(C#N)cc4c3n2[C@@H](C2CC2)CN4)nc2cc(C(=O)N3C[C@H]4CC[C@@H]3[C@@H]4N)cc(F)c21" ?
## Result 6.30 to 7.00

## Task May I ask what pIC50 has been recorded for COc1cc(C(=O)N2CCC[C@@H](N)C2)cc2nc(-c3cc4cccc5c4n3C(C)CN5)n(C)c12 (stereo partly shown) ?
## Result 5.30 to 6.30

## Task May I ask what pIC50 has been recorded for Cn1c(-c2cc3ccc4c(c3n2CC2CC2)NCC[S+]4[O-])nc2cc(C(=O)N3C[C@H]4CC[C@@H]3[C@@H]4N)cc(F)c21 (stereo partly shown) ?
## Result 5.30 to 6.30

## Task May I ask what pIC50 has been recorded for CCC1CN(CCC(C)(C)O)c2cccc3cc(-c4nc5cc(C(=O)N6C[C@H]7CC[C@@H]6[C@@H]7N)cc(F)c5n4C)n1c23 (stereo partly shown) ?
## Result 6.30 to 7.00

## Task May I ask what pIC50 has been recorded for "CC[C@@H]1CNc2cccc3cc(-c4nc5cc(C(=O)N6C[C@H]7CC[C@@H]6[C@@H]7N)cc(F)c5n4C)n1c23" ?
## Result < 5.30

## Task May I ask what pIC50 has been recorded for CCn1c(-c2cc3cccc4c3n2C(C)CN4CCCO)nc2cc(C(=O)N3C[C@H]4CC[C@@H]3[C@@H]4NC(=O)OC(C)(C)C)cc(OC)c21 (stereo partly shown) ?
## Result < 5.30

## Task May I ask what pIC50 has been recorded for "Cn1c(-c2cc3ccc4c(c3n2CC2CC2)CC(=O)N4)nc2cc(C(=O)N3C[C@H]4CC[C@@H]3[C@@H]4N)cc(F)c21" ?
## Result 5.30 to 6.30

----------
biological target: Protein arginine deiminase 4 (PAD4) (Homo sapiens); assay: PAD4 ammonia release assay; format: biochemical; details: PAD4 ammonia release assay, BAEE substrate, 60 min at RT; read-out: Average IC50 Abs
Item-by-item account of IC50

Examples from the recorded data:
# compound, IC50
measured = [
    ("C#CCn1c(-c2cc3cccc4c3n2C(CC)CN4CCCO)nc2cc(C(=O)N3C[C@H]4CC[C@@H]3[C@@H]4N)cc(OC)c21 (stereo partly drawn)", "100 to 500 nM"),
    ("CCC1CN(CCCO)c2cccc3cc(-c4nc5cc(C(=O)N6C[C@H]7CC[C@@H]6[C@@H]7N)cc(OC)c5n4C)n1c23 (single isomer, unassigned) [Example 86]", "> 5000 nM"),
    ("CCC1CNc2c(Cl)ccc3cc(-c4nc5cc(C(=O)N6C[C@H]7CC[C@@H]6[C@@H]7N)cc(F)c5n4C)n1c23 (stereo partly drawn)", "> 5000 nM"),
    ("COc1cc(C(=O)N2C[C@H](N)C[C@@H](F)C2)cc2nc(-c3cc4cccc5c4n3C(C)CN5CCCO)n(C)c12 (stereo partly drawn)", "100 to 500 nM"),
    ("CCC1CN(CCCO)c2cccc3cc(-c4nc5cc(C(=O)N6C[C@H](N)C[C@@H](F)C6)cc(OC)c5n4C)n1c23 (single isomer, unassigned) [Example 81]", "500 to 5000 nM"),
]

Next compound, please.
## Task May I ask what IC50 has been recorded for CCC1CN(CCO)c2cccc3cc(-c4nc5cc(C(=O)N6C[C@H](N)C[C@@H](F)C6)cc(OC)c5n4C)n1c23 (stereo partly drawn) ?
## Result 100 to 500 nM

----------
Item-by-item account of pIC50
molecular target: Protein arginine deiminase 4 (PAD4) (Homo sapiens); experiment: PAD4 ammonia release assay; format: biochemical; details: PAD4 ammonia release assay, BAEE substrate, 60 min at RT; read-out: Average IC50 Abs
pIC50: −log10 of the molar value.

Examples from the recorded data:
# compound, assaySystem, pIC50
records = [
    ("COc1cc(C(=O)N2CCC[C@@H](N)C2)cc2nc(-c3cc4cccc5c4n3CCN5C3CC(N)C3)n(C)c12 (stereo partly shown)", "Protein arginine deiminase 4 (PAD4) (Homo sapiens)", "5.30 to 6.30"),
    ("Cn1c(-c2cc3cc(C#N)cc4c3n2[C@H](C2CC2)CN4)nc2cc(C(=O)N3C[C@H]4CC[C@@H]3[C@@H]4N)cc(F)c21", "Protein arginine deiminase 4 (PAD4) (Homo sapiens)", "< 5.30"),
    ("CCn1cc(Cn2c(-c3cc4cccc5c4n3CCN5CCCO)nc3cc(C(=O)N4C[C@H](N)C[C@@H](F)C4)cc(OC)c32)cn1", "Protein arginine deiminase 4 (PAD4) (Homo sapiens)", "≥ 7.00"),
]

Next compound, please.
## Task May I ask what pIC50 has been recorded for CCC1CN(CCCO)c2cccc3cc(-c4nc5cc(C(=O)N6C[C@H]7CC[C@@H]6[C@@H]7N)cc(OC)c5n4C)n1c23 (single isomer, unassigned) [Example 87] ?
## Result 6.30 to 7.00

----------
target: Protein arginine deiminase 4 (PAD4) (Homo sapiens, UniProt Q9UM07); assay: PAD4 ammonia release assay; assay type: biochemical; conditions: PAD4 ammonia release assay, BAEE substrate, 60 min at RT; read-out: Average IC50 Abs
pIC50: −log10 of the molar value.
Item-by-item account of pIC50

# compound, pIC50
records = [
    ("CCC1CNc2cccc3cc(-c4nc5cc(C(=O)N6C[C@H]7CC[C@@H]6[C@@H]7N)cnn5c4C)n1c23 (stereo partly shown) [Example 138]", "5.30 to 6.30"),
    ("COc1cc(C(=O)N2C[C@H](N)C[C@@H](F)C2)cc2nc(-c3cc4cccc5c4n3CCN5CCCO)n(CC(F)F)c12 [Example 51]", "6.30 to 7.00"),
    ("Cn1c(-c2cc3ccc4[nH]ccc4c3n2CC2CC2)nc2cc(C(=O)N3C[C@H]4CC[C@@H]3[C@@H]4N)cc(F)c21 [Example 144]", "6.30 to 7.00"),
    ("COc1cc(C(=O)N2C[C@H](N)C[C@@H](F)C2)cc2nc(-c3cc4cccc5c4n3CCN5CCOCCO)n(C)c12 [Example 22]", "6.30 to 7.00"),
    ("COc1cc(C(=O)N2C[C@H](N)C[C@@H](F)C2)cc2nc(-c3cc4cccc5c4n3CCN5CCCO)n(Cc3cccs3)c12 [Example 37]", "≥ 7.00"),
]

## Task Could you share what pIC50 was measured for Cn1c(-c2cc3cccc4c3n2[C@H](C2CC2)CN4)nc2cc(C(=O)N3C[C@H]4CC[C@@H]3[C@@H]4N)cc(F)c21 (single isomer, unassigned) [Example 109] , tested on Protein arginine deiminase 4 (PAD4) (Homo sapiens, UniProt Q9UM07)?
## Result 5.30 to 6.30

## Task Could you share what pIC50 was measured for COc1cc(C(=O)N2C[C@H](N)C[C@@H](F)C2)cc2nc(-c3cc4cccc5c4n3CCN5CCCNC(C)=O)n(C)c12 [Example 1] , tested on Protein arginine deiminase 4 (PAD4) (Homo sapiens, UniProt Q9UM07)?
## Result 5.30 to 6.30

## Task Could you share what pIC50 was measured for CCC1CN(CCCO)c2cccc3cc(-c4nc5cc(C(=O)N6C[C@H]7CC[C@@H]6[C@@H]7N)cc(F)c5n4CC4COC4)n1c23 (stereo partly shown) [Example 92] , tested on Protein arginine deiminase 4 (PAD4) (Homo sapiens, UniProt Q9UM07)?
## Result 6.30 to 7.00

## Task Could you share what pIC50 was measured for CC(C)C1CNc2cccc3cc(-c4nc5cc(C(=O)N6C[C@H]7CC[C@@H]6[C@@H]7N)cc(F)c5n4C)n1c23 (stereo partly shown) [Example 104] , tested on Protein arginine deiminase 4 (PAD4) (Homo sapiens, UniProt Q9UM07)?
## Result 6.30 to 7.00

## Task Could you share what pIC50 was measured for COc1cc(C(=O)N2CCC[C@@H](N)C2)cc2nc(-c3cc4cccc5c4n3CCN5C(=O)c3ccccc3)n(C)c12 [Example 31] , tested on Protein arginine deiminase 4 (PAD4) (Homo sapiens, UniProt Q9UM07)?
## Result < 5.30

## Task Could you share what pIC50 was measured for CC1CNc2cccc3cc(-c4nc5cc(C(=O)N6C[C@H]7CC[C@@H]6[C@@H]7N)ccc5n4C)n1c23 (stereo partly shown) [Example 169] , tested on Protein arginine deiminase 4 (PAD4) (Homo sapiens, UniProt Q9UM07)?
## Result 5.30 to 6.30

## Task Could you share what pIC50 was measured for COc1cc(C(=O)N2CC[C@H](F)[C@H](N)C2)cc2nc(-c3cc4cccc5c4n3CCN5CCCO)n(CC3CC3)c12 [Example 58] , tested on Protein arginine deiminase 4 (PAD4) (Homo sapiens, UniProt Q9UM07)?
## Result 5.30 to 6.30

## Task Could you share what pIC50 was measured for CCn1cc(Cn2c(-c3cc4cccc5c4n3CCN5CCO)nc3cc(C(=O)N4C[C@H](N)C[C@@H](F)C4)cc(F)c32)cn1 [Example 39] , tested on Protein arginine deiminase 4 (PAD4) (Homo sapiens, UniProt Q9UM07)?
## Result 6.30 to 7.00
